Would you kindly list pKd for each of these binders?
# subject-of-test: T1, Fusion protein of extracellular domain of human TIGIT and His-tag (human TIGIT ECD-his) (human)
# T1 chain: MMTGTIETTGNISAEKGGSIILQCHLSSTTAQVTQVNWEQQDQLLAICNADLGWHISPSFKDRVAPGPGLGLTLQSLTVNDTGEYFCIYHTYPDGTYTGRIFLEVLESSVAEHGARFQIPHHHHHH
# procedure-text: BIAcore
pKd is defined as minus the log10 of a concentration measured in mol/L.

Suppose we examine the binder TIGIT-006-H5L2 (antibody, V domains shown, Humanized anti-TIGIT antibody) VH: EVQLQESGPGLVKPSETLSLTCAVSGYSMTSDYWNWIRQPPGKKLEYIGYISYSGRTYYNPSLKSRVTISRDTSKNQFSLKLSSVTAADTAVYYCARGDYSNYGGAMYDWGQGTTVTVSS VL: DIVMTQTPLSLSVTPGQPASISCRASQGVSTTIAWYQQKPGQSPKLLIYSASYRYTGVPDRFSGSGSGTDFTLKISRVEAEDVGVYYCQQYYSSPFTFGGGTKVEIK ; what pKd value has been reported?
10.10

Suppose we examine the binder TIGIT-006-H1L3 (antibody, V domains shown, Humanized anti-TIGIT antibody) VH: EVQLQESGPGLVKPSETLSLTCAVSGYSITSDYWNWIRQPPGKGLEWIGYISYSGRTYYNPSLKSRVTISRDTSKNQFSLKLSSVTAADTAVYYCARGDYSNYGGAMYDWGQGTTVTVSS VL: DIVMTQSPDSLAVSLGERATINCRASQGVSTTIAWYQQKPGQSPKLLIYSASYRYTGVPRFSGSGSGTDFTLTISSLQAEDVAVYYCQQYYSSPFTFGGGTKVEIK ; what pKd value has been reported?
8.58

Suppose we examine the binder TIGIT-005-H2L1d (antibody, V domains shown, Humanized anti-TIGIT antibody with NG-site mutation in VL) VH: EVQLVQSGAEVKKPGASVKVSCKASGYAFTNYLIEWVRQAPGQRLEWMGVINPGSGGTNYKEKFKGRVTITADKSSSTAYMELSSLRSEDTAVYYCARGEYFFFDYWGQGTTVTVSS VL: DIVMTQSPDSLAVSLGERATINCKASQHVSNAVAWYQHKPGQSPKLLIYSASYRYTGVPDRFSGSGSGTDFTLTISSLQAEDVAVYYCQQHYNTPHTFGGGTKVEIK ; what pKd value has been reported?
10.05

Suppose we examine the binder TIGIT-006-H4L1 (antibody, V domains shown, Humanized anti-TIGIT antibody) VH: EVQLQESGPGLVKPSETLSLTCAVSGYSMTSDYWNWIRQPPGKKLEWMGYISYSGRTYYNPSLKSRITISRDTSKNQFSLKLSSVTAADTAVYYCARGDYSNYGGAMYDWGQGTTVTVSS VL: DIVMTQTPLSLSVTPGQPASISCRASQGVSTTIAWYLQKPGQSPQLLIYSASYRYTGVPDRFSGSGSGTDFTLKISRVEAEDVGVYYCQQYYSSPFTFGGGTKVEIK ; what pKd value has been reported?
9.18

Suppose we examine the binder TIGIT-CHI-002 (antibody, V domains shown, Human-mouse chimeric antibody) VH: EVQLQESGPGLAKPSQTLSLACSVTGYSITSDSWNWIRKFPGNKLEYMGYISYSGNTYYNPSLKSRISITRDTSKNQFYLQLNSVTTEDTATYYCARLDFSNYGGAVDYWGQGTSVTVSS VL: DIVMTQSHTFMSTSVGDRVSITCKASQNVRTAVAWYQQKPGQSPKLMIYSASYRYTGVPDRFTGSGSGTDFTFTISSVQAEDLAVYYCQQYYTTPWTFGGGAKLEIQ ; what pKd value has been reported?
10.38
